experiment: NCI Yeast Anticancer Drug Screen. Data for the sgs1 mgt1 strain (AID 161);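 further: 0% = growth of cultures given vehicle only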; settings: S. cerevisiae sgs1 mgt1 strain, at 50.0 µM, stronger effect = higher value
This is part of a sample that, as a whole, favours compounds with a hit. Of some 79,000 tested, about 15% had one in any assay.
measuredQuantity: growth inhibition (%)
Write it as a number; the unit % goes unstated.

# annotated cases, reported growth inhibition shown
molecule | quantitativeResult
CC(=O)Nc1ccc(-c2nnc(SCC(=O)Nc3cccc(C)c3)o2)cc1 | 32
c1ccc2c(c1)Cc1c(-c3ccncc3)n[nH]c1-2 | 41.6
O=C1CCCC(=S)N1 | 9.35
CC1=C(C(=O)Nc2ccccc2C)C(c2ccco2)C(C(=O)Nc2ccccc2C)=C(C)N1C | -38.1
Cc1nc2ccccc2n1CCC(N)=O | 6.1
CCOC(=O)c1cc(C)nc(Cl)c1[N+](=O)[O-] | 4.35
O=S1(=O)C=C(Br)CO1 | -2.5
COC(=O)c1ccc(C(=O)OC)c2nc3cc(Cl)ccc3nc12 | -35.5
COC(=O)N(c1ccccc1)c1ccccn1 | -10.2
[N-]=[N+]=CC(=O)C1OC1c1ccc(Br)cc1 (stereo not given) | 22.9

Data request: Reported growth inhibition for COc1ccc2nc3cc(Cl)ccc3c(NCCCC3CCCN4CCCCC34)c2c1 (stereo not given) : what is it?
Data returned: 2

Data request: Reported growth inhibition for O=c1oc2c(c(N(c3ccccc3)c3ccccc3)c1Cl)CCc1nc(-c3ccccc3)sc1-2 : what is it?
Data returned: -7.6

Data request: Reported growth inhibition for O=C(/C(=C(/[O-])C(F)(F)F)[n+]1cccc2ccccc21)C(F)(F)F : what is it?
Data returned: -11.2

Data request: Reported growth inhibition for O=C(O)CCS.[Cu+2] : what is it?
Data returned: -9.05

Data request: Reported growth inhibition for O=[N+]([O-])C1(CO)COC2(OC1)c1ccccc1-c1ccccc12 : what is it?
Data returned: -21.6

Data request: Reported growth inhibition for O=S(=O)(O)c1ccccc1O : what is it?
Data returned: -2.75

Data request: Reported growth inhibition for Cc1cc(-n2cnc3c(N(CCO)CCO)ncnc32)ccc1[N+](=O)[O-] : what is it?
Data returned: -3.95

Data request: Reported growth inhibition for O/N=C1/C(=C/c2ccc(Br)cc2)CCCC1C(NO)c1ccc(Br)cc1 (stereo not given) : what is it?
Data returned: -27.4

Data request: Reported growth inhibition for O=C(NC(=O)C1(C(=O)O)CCCC1)Nc1ccccc1 : what is it?
Data returned: 6.4

Data request: Reported growth inhibition for CC(=O)c1ccc(N2CCCCC2)cc1 : what is it?
Data returned: 4.55

----------
Each entry below carries its recorded growth inhibition.
test: NCI Yeast Anticancer Drug Screen. Data for the cln2 rad14 strain (AID 165);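 further: 0% = growth equal to vehicle treated cultures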; settings: S. cerevisiae cln2 rad14 strain, at 50.0 µM, stronger effect = higher value
The panel holds about 79,000 compounds, 15% with a hit somewhere; the sample as a whole holds those more often.
Write it as a number; the unit % goes unstated.

# annotated cases, reported growth inhibition shown
compound | valueUnit | growth inhibition
CCOc1cc(C)c2cccc(C)c2n1 | % | 6.25
CCOC(=O)c1cc(C)nc(Cl)c1[N+](=O)[O-] | % | 0.65
N#Cc1sc2c(c1OC(=O)c1ccc(C(F)(F)F)cc1)c(=O)n(-c1ccccc1)c(=S)n2-c1ccccc1 | % | 0.8
[N-]=[N+]=Nc1nc2c(N)ncnc2n1C1OC(CO)C(O)C1O (stereo unspecified) | % | -22.8
c1ccc2c(c1)ncn2C1CCCCO1 (stereo unspecified) | % | 0.9

Data request: Reported growth inhibition for CC(=O)c1ccc(CCCCc2ccc([N+](=O)[O-])cc2)cc1 : what is it?
Data returned: -59.5
